Target: HLA-B*35:01
Assay: IEDB peptide-MHC binding, purified MHC/competitive/radioactivity; bounds were set here for any values at or beyond the usual limits of such assays
Settings: source organism: Bordetella pertussis
Overview of recorded pIC50 for various sequences
Here pIC50 is given on a logarithmic scale as minus log10 of the concentration in mol/L.

Previously resolved entries follow.
INSERT INTO measurements (residues, recordedvalue) VALUES
  ('AAAEVAGAL', 4.16),
  ('APPGAGFIY', 4.78),
  ('YDTGDLIAY', 4.16);

Look up and report measured pIC50 (HLA-B*35:01) for the following sequence: VTMRYLASY
4.45

###

Target: HLA-B*53:01
Test: IEDB peptide-MHC binding, purified MHC/competitive/radioactivity; bounds were set here for any values at or beyond the usual limits of such assays
Conditions: source organism: Bordetella pertussis
observable: IC50 (µM)
Kindly provide the numeric value in µM only, without the unit symbol.

INSERT INTO results (residues, systemtested, scaleunit, recordedvalue) VALUES
  ('VAAAADLAL', 'HLA-B*53:01', 'µM', 21.7);

Next sequence, IC50 to be filled in.
Look up and report measured IC50 (HLA-B*53:01) for the following sequence: IPFQRALRL
2.3

###

Overview of recorded pIC50 for various sequences
Biological target: HLA-B*44:03
Experiment: IEDB peptide-MHC binding, purified MHC/competitive/radioactivity; bounds were set here for any values at or beyond the usual limits of such assays
Conditions: source organism: Bordetella pertussis
Here pIC50 is given on a logarithmic scale as minus log10 of the concentration in mol/L.

Previously resolved entries follow.
INSERT INTO measurements (residues, systemtested, observable, recordedvalue) VALUES
  ('ESAEGRKIF', 'HLA-B*44:03', 'pIC50', 4.44),
  ('MEYFKTPLP', 'HLA-B*44:03', 'pIC50', 4.55),
  ('FETYALTGI', 'HLA-B*44:03', 'pIC50', 4.45);

Next sequence, pIC50 to be filled in.
Look up and report measured pIC50 (HLA-B*44:03) for the following sequence: AAAEVAGAL
4.31

###

Target: HLA-A*02:01
Assay: IEDB peptide-MHC binding, purified MHC/competitive/radioactivity; bounds were set here for any values at or beyond the usual limits of such assays
Settings: source organism: Bordetella pertussis
pIC50: −log10 of the molar value.
observable: pIC50

INSERT INTO measurements (residues, recordedvalue) VALUES
  ('EHRMQEAVE', '≤ 4.11');

Look up and report measured pIC50 (HLA-A*02:01) for the following sequence: AGKSLKKKN
≤ 4.11
